Data provenance: patent US20040038855A1

Target: human Dopamine D2 receptor (Homo sapiens, UniProt P14416)
Construct: purchased BioSignal, Inc. (Montreal, Canada)
Sequence (P14416 whole entry): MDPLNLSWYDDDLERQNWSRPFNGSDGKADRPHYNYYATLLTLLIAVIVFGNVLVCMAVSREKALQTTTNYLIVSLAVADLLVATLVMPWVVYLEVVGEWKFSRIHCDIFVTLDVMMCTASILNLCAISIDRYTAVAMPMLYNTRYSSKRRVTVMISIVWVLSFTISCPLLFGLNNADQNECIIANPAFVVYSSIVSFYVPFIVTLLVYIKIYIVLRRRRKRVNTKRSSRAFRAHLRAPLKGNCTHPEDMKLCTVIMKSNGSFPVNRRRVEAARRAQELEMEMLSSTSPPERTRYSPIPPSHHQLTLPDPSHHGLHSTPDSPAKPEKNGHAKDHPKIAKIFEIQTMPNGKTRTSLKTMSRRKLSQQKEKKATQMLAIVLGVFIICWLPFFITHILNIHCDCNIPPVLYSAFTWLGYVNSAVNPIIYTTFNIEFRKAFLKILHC
Test: Binding affinity at the human dopamine D2 receptor
Conditions: Table 3c; read-out: hD2 Ki
pKi: −log10 of the molar value.
EXPERIMENTAL_READOUT: pKi

INSERT INTO assay_data (molecule, experimental_readout, inequality_operator, obs_value) VALUES
  ('CCCC(=O)Nc1cccc(C2CCN(CCCNC(=O)C3=C(COC)NC(=O)N[C@@H]3c3ccc(F)c(F)c3)CC2)c1 [Example 45]', 'pKi', '<', 4.30),
  ('O=C(Cc1ccccc1)Nc1cccc(C2CCN(CCCC(=O)c3ccc(Cl)cc3)CC2)c1 [Example 68]', 'pKi', '=', 6.11),
  ('CCC(C)C(=O)Nc1cccc(C2CCN(CCCNC(=O)C3=C(COC)NC(=O)N[C@@H]3c3ccc(F)c(F)c3)CC2)c1 (stereo partly drawn) [Example 48]', 'pKi', '<', 4.30),
  ('CC(C)C(=O)Nc1cccc(C2CCN(CC[C@@H](Oc3cccc(Cl)c3)c3ccccc3)CC2)c1 [Example 124]', 'pKi', '=', 7.18),
  ('COC(CCN1CCC(c2cccc(NC(=O)C(C)C)c2)CC1)c1ccccc1 (stereo not drawn) [Example 93]', 'pKi', '=', 4.46),
  ('CC(C)C(=O)Nc1cccc(C2CCN(CC[C@@H](Oc3ccccc3[N+](=O)[O-])c3ccccc3)CC2)c1 [Example 133]', 'pKi', '=', 6.35);
